molecular target: Integrin alpha4beta1 on Jurkat cells (clone E6-1) (Homo sapiens, UniProt P13612;P05556 P13612:34-1032,P05556:21-798); assay: competition; 50% block of 100 nM VCAM-1 binding to Jurkat cells; details: tags: endogenous, ATCC cell line; label: biotin, FAM or Cy5
Sequence (P13612 34-1032, chain 1 of 2): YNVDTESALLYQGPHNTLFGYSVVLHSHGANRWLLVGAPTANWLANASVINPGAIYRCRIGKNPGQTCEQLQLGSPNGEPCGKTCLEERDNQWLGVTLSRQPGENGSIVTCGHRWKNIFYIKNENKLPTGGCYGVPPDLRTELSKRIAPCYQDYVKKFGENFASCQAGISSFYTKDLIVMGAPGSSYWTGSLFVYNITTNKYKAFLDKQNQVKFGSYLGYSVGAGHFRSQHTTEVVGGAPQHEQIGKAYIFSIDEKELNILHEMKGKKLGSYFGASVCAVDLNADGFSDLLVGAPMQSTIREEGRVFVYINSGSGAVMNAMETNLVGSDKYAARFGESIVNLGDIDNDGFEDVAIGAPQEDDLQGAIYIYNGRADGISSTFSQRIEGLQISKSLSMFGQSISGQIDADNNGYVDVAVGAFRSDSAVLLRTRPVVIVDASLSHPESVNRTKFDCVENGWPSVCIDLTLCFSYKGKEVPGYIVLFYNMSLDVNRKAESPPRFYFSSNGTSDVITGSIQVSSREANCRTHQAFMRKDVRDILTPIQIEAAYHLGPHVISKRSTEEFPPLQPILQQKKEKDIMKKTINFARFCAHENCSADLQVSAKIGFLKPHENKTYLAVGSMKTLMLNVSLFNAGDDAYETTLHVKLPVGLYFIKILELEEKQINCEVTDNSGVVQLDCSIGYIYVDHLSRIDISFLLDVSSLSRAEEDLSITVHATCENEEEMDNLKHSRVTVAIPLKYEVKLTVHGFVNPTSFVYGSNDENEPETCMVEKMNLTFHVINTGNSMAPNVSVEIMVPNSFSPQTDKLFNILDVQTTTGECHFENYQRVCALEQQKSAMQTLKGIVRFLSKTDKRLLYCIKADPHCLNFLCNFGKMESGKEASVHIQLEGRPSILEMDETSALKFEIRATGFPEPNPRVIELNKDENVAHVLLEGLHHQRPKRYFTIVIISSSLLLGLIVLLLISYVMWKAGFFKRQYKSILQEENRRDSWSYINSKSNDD
Sequence (P05556 21-798, chain 2 of 2): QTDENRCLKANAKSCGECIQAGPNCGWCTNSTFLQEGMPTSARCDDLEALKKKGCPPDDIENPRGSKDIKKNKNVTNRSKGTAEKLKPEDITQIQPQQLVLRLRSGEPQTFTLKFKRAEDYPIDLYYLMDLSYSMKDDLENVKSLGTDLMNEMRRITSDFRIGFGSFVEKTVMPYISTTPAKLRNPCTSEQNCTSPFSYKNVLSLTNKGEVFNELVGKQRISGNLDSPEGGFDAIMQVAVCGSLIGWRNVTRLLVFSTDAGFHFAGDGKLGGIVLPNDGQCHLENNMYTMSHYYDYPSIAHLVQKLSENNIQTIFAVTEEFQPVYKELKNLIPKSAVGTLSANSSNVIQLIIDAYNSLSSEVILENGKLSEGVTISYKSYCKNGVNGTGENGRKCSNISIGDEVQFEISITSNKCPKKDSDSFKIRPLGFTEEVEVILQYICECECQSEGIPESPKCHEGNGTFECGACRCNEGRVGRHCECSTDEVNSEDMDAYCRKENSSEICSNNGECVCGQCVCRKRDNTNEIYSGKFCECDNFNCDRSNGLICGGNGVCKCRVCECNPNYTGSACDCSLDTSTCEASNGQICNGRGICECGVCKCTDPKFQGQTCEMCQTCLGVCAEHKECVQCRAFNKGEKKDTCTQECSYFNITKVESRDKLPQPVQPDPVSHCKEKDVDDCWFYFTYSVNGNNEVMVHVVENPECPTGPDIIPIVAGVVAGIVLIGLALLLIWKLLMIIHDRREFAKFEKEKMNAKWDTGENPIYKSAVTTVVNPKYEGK
readout: IC50 (nM)

{"binder": "CTCCTTACTAGATGCAACCCGACTACTAACGTCGTAAGAGAG (ssDNA) [HR7A1.Tr2]", "measured": 3}

Every entry's value here was drawn from patent US20250020645.
